# Tested on: RS4;11 leukaemia tumour line
# measurementProtocol: In vitro cytotoxicity, Microculture Tetrazolium Assay (MTT)
# Assay type: cell-based
# conditionNotes: Homo sapiens; RS4;11 cells, 48 hours exposure
Where a name gives a salt, the structure may show the parent alone.
Rule: IC50 below 500 nM gives 1.0, anything at or above gives 0.0.

Prompt line: Regarding CN1CCN(C[C@@H]2Cc3ccccc3CN2C(=O)c2ccc(Br)cc2-n2cc(C(=O)N(c3ccc(O)cc3)c3ccc(O)cc3)c3ccccc32)CC1 , kindly confirm whether its IC50 is beneath 500 nM.
Response line: 1.0

Prompt line: Regarding NC[C@@H]1Cc2ccccc2CN1C(=O)c1cc(N)ccc1-n1nc(C(=O)N(c2ccccc2)c2ccccc2)c2ccccc21 , kindly confirm whether its IC50 is beneath 500 nM.
Response line: 0.0

Prompt line: Regarding Cc1ccc(N(C(=O)c2cn(-c3cc(Br)ccc3C(=O)N3Cc4ccccc4C[C@H]3CN3CCN(C)CC3)c3ccccc23)c2ccc(O)cc2)cc1 , kindly confirm whether its IC50 is beneath 500 nM.
Response line: 1.0

Prompt line: Regarding O=C(c1cn(-c2cc(Cl)ccc2C(=O)N2Cc3ccccc3C[C@H]2CN2CCOCC2)c2ccccc12)N(c1ccccc1)c1ccc(O)cc1 [Example 186, hydrochloride] , kindly confirm whether its IC50 is beneath 500 nM.
Response line: 0.0

Prompt line: Regarding Cc1cc(C(=O)N(c2ccccc2)c2ccc(O)cc2)cn1-c1cc2c(cc1C(=O)N1Cc3ccccc3C[C@H]1CCN1CCOCC1)OCO2 [Example 120, hydrochloride] , kindly confirm whether its IC50 is beneath 500 nM.
Response line: 1.0

Others:
Prompt line: Regarding Cc1cc(C(=O)N(c2ccc(O)cc2)c2cnc3c(ccn3C)c2)cn1-c1cc2c(cc1C(=O)N1Cc3ccccc3C[C@H]1CN1CCOCC1)OCO2 [Example 206, hydrochloride] , kindly confirm whether its IC50 is beneath 500 nM.
Response line: 1.0

Prompt line: Regarding Cc1cc(C(=O)N(c2ccc(O)cc2)c2ccc3c(ccn3C)c2)cn1-c1cc2occc2cc1C(=O)N1Cc2ccccc2C[C@H]1CN1CCOCC1 [Example 119, hydrochloride] , kindly confirm whether its IC50 is beneath 500 nM.
Response line: 1.0

Prompt line: Regarding CN1CCN(C[C@@H]2Cc3ccccc3CN2C(=O)c2cc3c(cc2-n2cc(C(=O)N(c4ccc(O)cc4)c4ccc(F)c(F)c4)c4ccccc42)OCO3)CC1 , kindly confirm whether its IC50 is beneath 500 nM.
Response line: 1.0

Prompt line: Regarding CN1CCN(C[C@@H]2Cc3ccccc3CN2C(=O)c2cc3c(cc2-n2cc(C(=O)N(c4ccc(O)cc4)c4ccc(OC(F)(F)F)cc4)c4ccccc42)OCO3)CC1 , kindly confirm whether its IC50 is beneath 500 nM.
Response line: 1.0

Prompt line: Regarding CC(C)CC1Oc2cc(C(=O)N3Cc4ccccc4C[C@H]3CN)c(-n3cc(C(=O)N(c4ccccc4)c4ccc(O)cc4)c4ccccc43)cc2O1 (some centres unmarked) , kindly confirm whether its IC50 is beneath 500 nM.
Response line: 0.0

---

# System: RS4;11 leukaemia tumour line
# measurementProtocol: In vitro cytotoxicity, Microculture Tetrazolium Assay (MTT)
# Format: cell-based
# conditionNotes: Homo sapiens; RS4;11 cells, 48 hours exposure
# Experimental: The cytotoxicity studies were carried out on the RS4;11 leukaemia tumour line. The cells are distributed onto microplates and exposed to the test compounds for 48 hours. The cell viability is then quantified by a colorimetric assay, the Microculture Tetrazolium Assay (Cancer Res., 1987, 47, 939-942).
Structures can show the parent of a compound that is named as a salt.
measuredAttribute: IC50 (nM)
Please reply with the bare figure in nM and do not write the unit itself.

Entry under test: Cc1c(C(=O)N(c2ccc(O)cc2)c2cc(C#N)n(C)c2C)cn(-c2cc(Cl)ccc2C(=O)N2Cc3ccccc3C[C@H]2CN2CCOCC2)c1C.Cl [Example 211, hydrochloride] . Its IC50 was 46.9

Entry under test: CN1CCN(C[C@@H]2Cc3ccccc3CN2C(=O)c2cc3c(cc2-n2cc(C(=O)N(c4ccccc4)c4ccc(O)cc4)c4ccccc42)OCO3)CC1 [Example 164, dihydrochloride] . Its IC50 was 132

Entry under test: CN1CCN(C[C@@H]2Cc3ccccc3CN2C(=O)c2cc3c(cc2-n2cc(C(=O)N(c4ccc(O)cc4)c4ccc5occc5c4)c4ccccc42)OCO3)CC1 [Example 44] . Its IC50 was 164

Entry under test: Cl.O=C(c1cn(-c2cc3c(cc2C(=O)N2Cc4ccccc4C[C@H]2CN2CCOCC2)OCO3)c2ccccc12)N(c1ccccc1)c1ccc(O)cc1 [Example 184, hydrochloride] . Its IC50 was 154

---

Each entry below carries its reported IC50.
# targetDesc: Bcl-2 protein (histag-Bcl-2, UniProtKB P10415) (Homo sapiens (Human), UniProt P10415)
# Sequence (P10415 whole entry): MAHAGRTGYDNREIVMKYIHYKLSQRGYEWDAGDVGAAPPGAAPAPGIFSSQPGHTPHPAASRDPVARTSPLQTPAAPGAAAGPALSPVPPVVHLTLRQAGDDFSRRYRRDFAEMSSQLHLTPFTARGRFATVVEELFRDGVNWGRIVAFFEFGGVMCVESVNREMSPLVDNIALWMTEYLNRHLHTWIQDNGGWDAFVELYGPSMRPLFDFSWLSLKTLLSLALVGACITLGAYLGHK
# measurementProtocol: Inhibition of Bcl-2 by the fluorescence polarisation technique
# Assay type: binding
# conditionNotes: fluorescence polarisation test; method A, or method B where underlined (underlining not visible); read-out: IC50 (nM) Bcl-2 FP
Counter-ions that a name gives are not always drawn.
Please reply with the bare figure in nM and do not write the unit itself.

Entry under test: CN1CCN(C[C@@H]2Cc3ccccc3CN2C(=O)c2cc3c(cc2-n2cc(C(=O)N(CCc4ccccc4)c4ccc(Cl)cc4)c4ccccc42)OCO3)CC1 . Its IC50 was 1110

Entry under test: Cc1cc(C(=O)N(c2ccc(O)cc2)c2ccc3c(ccn3C)c2)cn1-c1cc(Cl)ccc1C(=O)N1Cc2ccccc2C[C@H]1CN1CCN(C)CC1 . Its IC50 was 4.2

Entry under test: CN1CCN(C[C@@H]2Cc3ccccc3CN2C(=O)c2cc3c(cc2-n2cc(C(=O)N(c4ccc(O)c(Cl)c4)c4ccc5c(ccn5C)c4)c4ccccc42)OCO3)CC1 [Example 81, hydrochloride] . Its IC50 was 83.8

Entry under test: COc1cc(-n2cc(C(=O)N(c3ccc(O)cc3)c3ccc4[nH]ccc4c3)c3ccccc32)c(C(=O)N2Cc3ccccc3C[C@H]2CN2CCN(C)CC2)cc1O . Its IC50 was 4.4

Entry under test: CN1CCN(C[C@@H]2Cc3ccccc3CN2C(=O)c2cc3c(cc2-n2cc(C(=O)N(c4ccc(O)cc4)c4ccc5[nH]ccc5c4)c4cc(Cl)ccc42)OCO3)CC1 . Its IC50 was 19.6

---

# targetDesc: Bcl-2 protein (histag-Bcl-2, UniProtKB P10415) (Homo sapiens (Human), UniProt P10415)
# measurementProtocol: Inhibition of Bcl-2 by the fluorescence polarisation technique
# Format: binding
# conditionNotes: fluorescence polarisation test; method A, or method B where underlined (underlining not visible); read-out: IC50 (nM) Bcl-2 FP
Structures can show the parent of a compound that is named as a salt.
Each entry below carries its reported IC50.
Please reply with the bare figure in nM and do not write the unit itself.

Entry under test: Cc1ccc(N(C(=O)c2cn(-c3cc(Br)ccc3C(=O)N3Cc4ccccc4C[C@H]3CN3CCN(C)CC3)c3ccccc23)c2ccc(O)cc2)cc1 [Example 57] . Its IC50 was 13.4

Entry under test: Cc1cc(C(=O)N(c2ccccc2)c2ccc(O)cc2)cn1-c1cc(Cl)c(F)cc1C(=O)N1Cc2ccccc2C[C@H]1CN1CCN(C)CC1 [Example 28] . Its IC50 was 8

Entry under test: Cc1cc(C(=O)N(c2ccccc2)c2ccc(O)cc2)cn1-c1cc(F)ccc1C(=O)N1Cc2ccccc2C[C@H]1CN1CCN(C)CC1 [Example 21] . Its IC50 was 24.6

Entry under test: CN1CCN(C[C@@H]2Cc3ccccc3CN2C(=O)c2ccc(Cl)cc2-n2cc(C(=O)N(c3ccccc3)c3ccccc3)c3ccccc32)CC1 [Example 178, dihydrochloride] . Its IC50 was 17.5

Entry under test: NC[C@@H]1Cc2ccccc2CN1C(=O)c1cc(NC(=O)CSc2ccccc2)ccc1-n1nc(C(=O)N(c2ccccc2)c2ccccc2)c2ccccc21 [Example 149] . Its IC50 was 21.6

Entry under test: CN1CCN(C[C@@H]2Cc3ccccc3CN2C(=O)c2ccc(Br)cc2-n2cc(C(=O)N(c3ccc(O)cc3)c3ccc(Cl)cc3)c3ccccc32)CC1 [Example 59] . Its IC50 was 19.2

---

Each entry below carries its reported IC50.
# targetDesc: Bcl-2 protein (histag-Bcl-2, UniProtKB P10415) (Homo sapiens (Human), UniProt P10415)
# measurementProtocol: Inhibition of Bcl-2 by the fluorescence polarisation technique
# Type: binding
# conditionNotes: fluorescence polarisation test; method A, or method B where underlined (underlining not visible); read-out: IC50 (nM) Bcl-2 FP
Where a name gives a salt, the structure may show the parent alone.
Please reply with the bare figure in nM and do not write the unit itself.

Some solved entries appear below for comparison.
# IC50 measured on Bcl-2 protein (histag-Bcl-2, UniProtKB P10415) (Homo sapiens (Human), UniProt P10415) for item CCCCN(C(=O)c1cn(-c2cc(OC)c(O)cc2C(=O)N2Cc3ccccc3C[C@H]2CN2CCN(C)CC2)c2ccccc12)c1ccc(O)cc1 [Example 203, dihydrochloride] = 10

# IC50 measured on Bcl-2 protein (histag-Bcl-2, UniProtKB P10415) (Homo sapiens (Human), UniProt P10415) for item NC[C@@H]1Cc2ccccc2CN1C(=O)c1ccccc1-n1nc(C(=O)N(c2ccccc2)c2ccccc2)c2ccccc21 [Example 122] = 53.3

# IC50 measured on Bcl-2 protein (histag-Bcl-2, UniProtKB P10415) (Homo sapiens (Human), UniProt P10415) for item Cc1cc(C(=O)N(c2ccc(O)cc2)c2ccc(F)cc2)cn1-c1cc(Br)ccc1C(=O)N1Cc2ccccc2C[C@H]1CN1CCN(C)CC1 [Example 50] = 7.4

Others:
# IC50 measured on Bcl-2 protein (histag-Bcl-2, UniProtKB P10415) (Homo sapiens (Human), UniProt P10415) for item CCn1ccc2cc(N(C(=O)c3cn(-c4cc5c(cc4C(=O)N4Cc6ccccc6C[C@H]4CN4CCN(C)CC4)OCO5)c4ccccc34)c3ccc(O)cc3)ccc21 [Example 99] = 4.8

# IC50 measured on Bcl-2 protein (histag-Bcl-2, UniProtKB P10415) (Homo sapiens (Human), UniProt P10415) for item COc1cc(-n2cc(C(=O)N(c3ccc(O)cc3)C3CCCCC3)c3ccccc32)c(C(=O)N2Cc3ccccc3C[C@H]2CN2CCN(C)CC2)cc1O [Example 204, dihydrochloride] = 4.7

# IC50 measured on Bcl-2 protein (histag-Bcl-2, UniProtKB P10415) (Homo sapiens (Human), UniProt P10415) for item O=C(c1cn(-c2ccccc2C(=O)N2Cc3ccccc3C[C@H]2CO)c2ccccc12)N(c1ccccc1)c1ccc(O)cc1 [Example 172] = 4.2
